Target: MpIBP_RIII1-4 (Marinomonas primoryensis ice-binding protein, Region III domains 1-4), truncated construct ending at N507 (Marinomonas primoryensis)
Assay: ITC
recorded metric: Kd

Short answer for AGAGD [AGAGD (unlabelled peptide)] : Kd was 1900 nM

Lookup result for AGATD [AGATD (unlabelled peptide)] ; measured Kd: 86 nM

response.value for AGYTS [AGYTS (unlabelled peptide)] (field: Kd) = 59 nM

Measured Kd, AGYTD [AGYTD (unlabelled peptide)] : 67 nM

All figures here come from paper doi:10.1101/2020.11.18.389114.
